system: 422866-222-R5-J1-PDC spheroids with HUVEC/MSC, viability; experiment: Anticancer human tumor 422866-222-R5-J1-PDC patient-derived pancreatic adenocarcinoma cell line growth inhibition [GQUAD]; settings: second compound 0.1 µM; first compound 1 µM; stronger effect = lower value
Response field label takes MET when viability, T/C is strictly below 60% and NOT MET in all other cases.

C=CC(=O)N1CCN(c2nc(=O)n(-c3c(C)ccnc3C(C)C)c3nc(-c4c(O)cccc4F)c(F)cc23)C(C)C1 (stereo not given) + CN(C)c1ccc(Nc2c3ccc(NC(=O)CCN4CCCC4)cc3nc3cc(NC(=O)CCN4CCCC4)ccc23)cc1    MET
CC(=O)O[C@H]1C(=O)[C@@]2(C)[C@H]([C@H](OC(=O)c3ccccc3)[C@]3(O)C[C@H](OC(=O)[C@H](O)[C@@H](NC(=O)c4ccccc4)c4ccccc4)C(C)=C1C3(C)C)[C@]1(OC(C)=O)CO[C@@H]1C[C@@H]2O + Cc1cnc(CNC(=O)c2c(=O)c3ccc(N4CCCN(C)CC4)nc3n3c2sc2ccccc23)cn1    NOT MET
CC(C)(O)C1CCC(Nc2ccc3ncc(-c4cccc(C(F)(F)F)c4)n3n2)CC1 (stereo not given) + CN(C)c1ccc(Nc2c3ccc(NC(=O)CCN4CCCC4)cc3nc3cc(NC(=O)CCN4CCCC4)ccc23)cc1    NOT MET
COc1ncnc(C2CC2)c1-c1ncc2cnn(Cc3ccc(-c4nc(C(F)(F)F)cn4C(C)C)cc3)c2n1 + Cc1[nH]c2ccc(F)cc2c1-c1nc2c3cccnc3c3ncccc3c2[nH]1    NOT MET

Continue with the next compound.
Exam item: Threshold test, viability, T/C < 60%: COc1ccc([C@@H](O)c2cc(-c3ncnc4cc(N5CCOCC5)ccc34)c(F)cc2Cl)nn1 + Cc1cnc(CNC(=O)c2c(=O)c3ccc(N4CCCN(C)CC4)nc3n3c2sc2ccccc23)cn1
Marked response: MET

====

tested on: 422866-222-R5-J1-PDC spheroids with HUVEC/MSC, viability; experiment: Anticancer human tumor 422866-222-R5-J1-PDC cell line growth inhibition [GQUAD]; details: second compound 0.316 µM; first compound 0.0999 µM; stronger effect = lower value;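 note: spheroids exposed to compounds for seven days before reading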;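 for viability, T/C: percent viability relative to DMSO vehicle control taken as 100%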
Property name: viability, T/C (%)
Provide only the numeric value, understood in %.

Use the examples below as a reference point.
Cc1[nH]c2ccccc2c1CCNCc1ccc(/C=C/C(=O)NO)cc1 + Cc1cnc(CNC(=O)c2c(=O)c3ccc(N4CCCN(C)CC4)nc3n3c2sc2ccccc23)cn1    67.4
CCc1c2c(nc3ccc(O)cc13)-c1cc3c(c(=O)n1C2)COC(=O)[C@]3(O)CC + Cc1[nH]c2ccc(F)cc2c1-c1nc2c3cccnc3c3ncccc3c2[nH]1    39.2
Cc1[nH]c2ccccc2c1CCNCc1ccc(/C=C/C(=O)NO)cc1 + Cc1[nH]c2ccc(F)cc2c1-c1nc2c3cccnc3c3ncccc3c2[nH]1    115

Exam item: Look at this compound and give its reported viability, T/C. Cn1ncnc1[C@H]1c2n[nH]c(=O)c3cc(F)cc(c23)N[C@@H]1c1ccc(F)cc1 + CN(C)c1ccc(Nc2c3ccc(NC(=O)CCN4CCCC4)cc3nc3cc(NC(=O)CCN4CCCC4)ccc23)cc1
Marked response: 89.1

Exam item: What does the record list as viability, T/C for Cn1ncnc1[C@H]1c2n[nH]c(=O)c3cc(F)cc(c23)N[C@@H]1c1ccc(F)cc1 + Cc1[nH]c2ccc(F)cc2c1-c1nc2c3cccnc3c3ncccc3c2[nH]1 ?
Marked response: 91.4

Exam item: Value lookup for viability, T/C; key = CC[C@@]1(O)C(=O)OCc2c1cc1n(c2=O)Cc2cc3c(CN(C)C)c(O)ccc3nc2-1 + CN(C)c1ccc(Nc2c3ccc(NC(=O)CCN4CCCC4)cc3nc3cc(NC(=O)CCN4CCCC4)ccc23)cc1
Marked response: 48.3

Exam item: // query viability, T/C value for entry CC[C@@]1(O)C(=O)OCc2c1cc1n(c2=O)Cc2cc3c(CN(C)C)c(O)ccc3nc2-1 + Cc1[nH]c2ccc(F)cc2c1-c1nc2c3cccnc3c3ncccc3c2[nH]1
Marked response: 49.2

Exam item: Data request, read-out viability, T/C, for CCc1c2c(nc3ccc(O)cc13)-c1cc3c(c(=O)n1C2)COC(=O)[C@]3(O)CC + CN(C)c1ccc(Nc2c3ccc(NC(=O)CCN4CCCC4)cc3nc3cc(NC(=O)CCN4CCCC4)ccc23)cc1
Marked response: 50.5

Exam item: Consider the compound CCc1c2c(nc3ccc(O)cc13)-c1cc3c(c(=O)n1C2)COC(=O)[C@]3(O)CC + Cc1cnc(CNC(=O)c2c(=O)c3ccc(N4CCCN(C)CC4)nc3n3c2sc2ccccc23)cn1 and give its measured viability, T/C.
Marked response: 46.6

Exam item: Recorded viability, T/C for Cn1ncnc1[C@H]1c2n[nH]c(=O)c3cc(F)cc(c23)N[C@@H]1c1ccc(F)cc1 + Cc1cnc(CNC(=O)c2c(=O)c3ccc(N4CCCN(C)CC4)nc3n3c2sc2ccccc23)cn1 , please?
Marked response: 73.1

Exam item: # input compound: Cc1[nH]c2ccccc2c1CCNCc1ccc(/C=C/C(=O)NO)cc1 + CN(C)c1ccc(Nc2c3ccc(NC(=O)CCN4CCCC4)cc3nc3cc(NC(=O)CCN4CCCC4)ccc23)cc1 ; wanted: its viability, T/C
Marked response: 69.4

Exam item: Record request: viability, T/C value, item CC[C@@]1(O)C(=O)OCc2c1cc1n(c2=O)Cc2cc3c(CN(C)C)c(O)ccc3nc2-1 + Cc1cnc(CNC(=O)c2c(=O)c3ccc(N4CCCN(C)CC4)nc3n3c2sc2ccccc23)cn1
Marked response: 80.9

====

system: 422866-222-R5-J1-PDC spheroids with HUVEC/MSC, viability; experiment: Anticancer human tumor 422866-222-R5-J1-PDC cell line growth inhibition [GQUAD]; settings: second compound 3.16 µM; first compound 10 µM; stronger effect = lower value;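 note: spheroids exposed to compounds for seven days before reading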;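 for viability, T/C: percent viability relative to DMSO vehicle control taken as 100%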
Property name: viability, T/C (%)
# output: bare number, implied unit %

COc1cc(C2c3cc4c(cc3C(OC3OC5COC(C)OC5C(O)C3O)C3COC(=O)C23)OCO4)cc(OC)c1O (stereo not drawn) + CN(C)c1ccc(Nc2c3ccc(NC(=O)CCN4CCCC4)cc3nc3cc(NC(=O)CCN4CCCC4)ccc23)cc1    46
CC(C)n1c(=O)n(C)c2cnc3cc(F)c(-c4ccc(OCCCN5CCCCC5)nc4)cc3c21 + Cc1cnc(CNC(=O)c2c(=O)c3ccc(N4CCCN(C)CC4)nc3n3c2sc2ccccc23)cn1    77.4

Now look at this one.
Exam item: Entry CC1COCCN1c1cc(C2(S(C)(=N)=O)CC2)nc(-c2ccnc3[nH]ccc23)n1 (stereo not drawn) + CN(C)c1ccc(Nc2c3ccc(NC(=O)CCN4CCCC4)cc3nc3cc(NC(=O)CCN4CCCC4)ccc23)cc1 : reported viability, T/C = ?
Marked response: 43.5

====

Tested on: 422866-222-R5-J1-PDC spheroids with HUVEC/MSC, viability
Assay: Anticancer human tumor 422866-222-R5-J1-PDC cell line growth inhibition [GQUAD];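 note: spheroids exposed to compounds for seven days before reading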
Conditions: curve of first compound; second compound 3.16 µM
From the text: DNA G-quadruplex Stabilizer Agents in Combinations in Complex Spheroids A high-throughput screen of multi-cell type tumor spheroids was designed to identify active combinations of DNA G-quadruplex stabilizer agents and targeted small molecules. […] Compounds. […] If the clinical Cmax for an agent had not been determined, the highest concentration tested was 10 microM. […]
Property name: IC50

Before answering, review these 2 worked examples.
C=CC(=O)N1CCN(c2nc(=O)n(-c3c(C)ccnc3C(C)C)c3nc(-c4c(O)cccc4F)c(F)cc23)C(C)C1 (stereo not drawn) + CN(C)c1ccc(Nc2c3ccc(NC(=O)CCN4CCCC4)cc3nc3cc(NC(=O)CCN4CCCC4)ccc23)cc1    < 0.0316 µM
CCCS(=O)(=O)Nc1ccc(F)c(C(=O)c2c[nH]c3ncc(-c4ccc(Cl)cc4)cc23)c1F + Cc1cnc(CNC(=O)c2c(=O)c3ccc(N4CCCN(C)CC4)nc3n3c2sc2ccccc23)cn1    > 10 µM

// switching to the query compound
Exam item: State the recorded IC50 for this entry: CC1COCCN1c1cc(C2(S(C)(=N)=O)CC2)nc(-c2ccnc3[nH]ccc23)n1 (stereo not drawn) + Cc1cnc(CNC(=O)c2c(=O)c3ccc(N4CCCN(C)CC4)nc3n3c2sc2ccccc23)cn1
Marked response: > 10 µM

====

system: 422866-222-R5-J1-PDC spheroids with HUVEC/MSC, viability; assay: Anticancer human tumor 422866-222-R5-J1-PDC cell line growth inhibition [GQUAD]; conditions: second compound 0.316 µM; first compound 1 µM; stronger effect = lower value;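 note: spheroids exposed to compounds for seven days before reading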;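 for viability, T/C: percent viability relative to DMSO vehicle control taken as 100%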
Property name: viability, T/C

COc1cc(C2c3cc4c(cc3C(OC3OC5COC(C)OC5C(O)C3O)C3COC(=O)C23)OCO4)cc(OC)c1O (stereo not given) + Cc1[nH]c2ccc(F)cc2c1-c1nc2c3cccnc3c3ncccc3c2[nH]1    56.8%
Nc1ccn(C2OC(CO)C(O)C2(F)F)c(=O)n1 (stereo not given) + Cc1cnc(CNC(=O)c2c(=O)c3ccc(N4CCCN(C)CC4)nc3n3c2sc2ccccc23)cn1    62.3%
CC(C)n1c(=O)n(C)c2cnc3cc(F)c(-c4ccc(OCCCN5CCCCC5)nc4)cc3c21 + CN(C)c1ccc(Nc2c3ccc(NC(=O)CCN4CCCC4)cc3nc3cc(NC(=O)CCN4CCCC4)ccc23)cc1    81.2%
C#Cc1c(F)ccc2cc(O)cc(-c3ncc4c(N5CC6CCC(C5)N6)nc(OCC56CCCN5CC(F)C6)nc4c3F)c12 (stereo not given) + Cc1cnc(CNC(=O)c2c(=O)c3ccc(N4CCCN(C)CC4)nc3n3c2sc2ccccc23)cn1    65.6%

Turning now to a further record.
Exam item: Field: viability, T/C (422866-222-R5-J1-PDC spheroids with HUVEC/MSC, viability). Entry: CC1COCCN1c1cc(C2(O)CC3CCC(C2)O3)c2cnn(-c3ccn[nH]3)c2n1 (stereo not given) + Cc1cnc(CNC(=O)c2c(=O)c3ccc(N4CCCN(C)CC4)nc3n3c2sc2ccccc23)cn1
Marked response: 47.4%
